Test system: SK-MEL-28 melanoma
Assay Remarks: NCI-60 one-dose screen, 48 h (100 = growth as untreated, 0 = no growth, -100 = all killed)
Condition Parameters: 10 µM unless noted
About 83,000 compounds went through this panel and 20% of them were active in at least one assay; those are over-represented in the sample as a whole.
Known growth of a selection of molecules
Recorded Endpoint: growth (%)

COC(=O)c1cc(=O)nc(N/N=C/c2ccco2)s1    104
COC(=O)c1cccc2c1N(C)c1c(cccc1C(=O)OC)CC2    120
Cc1ccc(N2CCN(C(C)C(N)=O)CC2)cc1 (configuration not stated)    119
COc1ccc(Nc2nn3c(-c4ccccc4)cc(-c4ccccc4)nc3c2C(N)=O)c(OC)c1    71
NC(=O)c1c(NC(=S)Nc2ccc(OC(F)(F)F)cc2)sc2c1CCC1(C2)OCCO1    104
CC(NNC(C)c1ccccc1)c1ccccc1 (configuration not stated)    118
COc1ccc(-c2ccc(C)n2-c2ccc(-c3nc4ccccc4s3)cc2)cc1    113
O=c1[nH]c(NCc2ccccc2)nc2nc(Nc3ccc(NC(=S)Nc4ccccc4)cc3)nc(-c3ccc(O)cc3O)c12    91.5
Cc1ccc(/C=C2\CN(C(=O)CCN3CCC(=NO)CC3)C/C(=C\c3ccc(C)cc3)C2=O)cc1    -17.5
CCOC(=O)NNC(=S)Nc1ccccc1    106
CN(C)CCCC(C#N)c1ccccc1 (configuration not stated)    119
Cc1nc2ncccc2nc1Nc1ccc(S(=O)(=O)Nc2ccccn2)cc1    101
O=C(NS(=O)(=O)c1ccccc1)n1cc(-c2ccncc2)c(-c2ccc(Cl)c(O)c2)n1    63
C=C[C@@H]1C[C@H](O)Cc2ccccc2N1    112
COc1ccc(/C=C(\C#N)c2cc(OC)c3c(c2)OCO3)cc1    67.8
c1ccc(-c2cn(-c3ccccc3)c(-c3ccccc3)n2)cc1    98.9
CCOC(=O)C1=C(C)NC(C)=C(C(=O)OCC)C1(C)C    102
Cc1ccc(NS(=O)(=O)c2cc(C)ccc2C)cc1    61.5
COc1ccc(-c2ccc(-c3ccc(C(=N)N)cn3)s2)cc1OC    98
COc1ccc(NC(=O)CSc2nc(-c3ccc(OC)c(OC)c3)cc(-c3cc(OC)c(OC)c(OC)c3)n2)cc1    108
COc1ccc(C2NN=C3c4ccccc4CCC32)cc1 (configuration not stated)    76
O=C1c2c(Cl)c(Cl)c(Cl)c(Cl)c2C(=O)C2(Cl)CC=CCC12Cl (configuration not stated)    -58.8

###

Test system: OVCAR-3 ovarian
Assay Remarks: NCI-60 one-dose screen, 48 h (100 = growth as untreated, 0 = no growth, -100 = all killed)
Condition Parameters: 10 µM unless noted
About 83,000 compounds went through this panel and 20% of them were active in at least one assay; those are over-represented in the sample as a whole.
Recorded Endpoint: growth (%)

NC1N=C(SCC(=O)N2CCN(c3cc4c(cc3F)c(=O)c(C(=O)O)cn4C3CC3)CC2)NC(=O)/C1=C/c1ccc(Cl)cc1 (stereo not given)    109
O=S(=O)(NCCNc1nccc(-c2c(-c3cccc(O)c3)nc3sccn23)n1)c1ccc(F)cc1    86.8
Nc1cc2c(cc1C(=O)c1cccc(F)c1)OCCO2    116
c1ccc(-c2cn(-c3ccccc3)c(-c3ccccc3)n2)cc1    13.4
O=C(Nc1cccc(-n2cc(-c3ccncc3)c(-c3ccc(Cl)c(O)c3)n2)c1)Nc1cccc(C(F)(F)F)c1    0.81
COc1cc(C2CC(c3ccc4c(c3)OCO4)=NN2C=O)cc(OC)c1OC (stereo not given)    -29
CC(=O)Nc1scc[n+]1Cc1ccccc1    114
N[C@@H]1CCN(C(=O)c2cc3cc(Cl)c(F)c(F)c3[nH]2)C1    97.6
O=Nc1c(-c2cccc([N+](=O)[O-])c2)nc2ncccn12    44.9
COc1ccc(CNCCCN2C(=O)c3ccc4c5c(ccc(c35)C2=O)C(=O)N(CCCNCCCCNCCCN)C4=O)c(OC)c1OC    3.29
COc1ccc(S(=O)(=O)n2ccc(-c3ccc4c(c3)CCC(C)(C)O4)n2)cc1OC    70.9
COc1ccc(-c2nc(/C=C3/C(=O)Nc4ccc(F)cc43)c3ccccn23)cc1    114
c1ccc(-c2nc(N3CCNCC3)c3nc(-c4ccccc4)oc3n2)cc1    -90.6
O=[N+]([O-])c1cccc(-c2nc3sccn3c2-c2ccnc(NCCCNS(=O)(=O)c3ccc(C(F)(F)F)cc3)n2)c1    28.7
CO[C@H]1NC(=O)N(S(=O)(=O)c2ccc(Cl)cc2)[C@@H]1OC    108
COc1ccc(-c2ccc(C)n2-c2ccc(-c3nc4cc(Cl)ccc4s3)cc2)cc1    109
Cn1c2ccc(Br)cc2c2c3c(c4c5ccccc5[nH]c4c21)C(=O)N(O)C3=O    -86.2
CCCCCCCCCCCCNC(=O)[C@H]1CSC(c2ccsc2)N1 (stereo not given in full)    -86.8
O=S(=O)(NCCNc1nccc(-c2c(-c3ccc(F)cc3)nc3sccn23)n1)c1ccc(F)cc1    90.1
CC1=NC2=CC=CC3=NC(C(Cl)(Cl)Cl)=NC(=N1)N23    34.8
CCN1C(=O)N(CC)C2C1NN=c1s/c(=C\c3cccnc3)c(=O)n12 (stereo not given)    -22.9
CC12CCCC(CC(=O)c3[nH]c4ccccc4c31)C2 (stereo not given)    -26.1
COc1ccc(Nc2[nH]n3c(=O)cc(-c4ccccc4)nc3c2C(=O)Nc2ccc(C)cc2)c(OC)c1    98.7
COC1=C(OC)C(=O)C(CCCCCCCCCC[P+](c2ccccc2)(c2ccccc2)c2ccccc2)=C(C)C1=O    -34.2
O=c1[nH]c2ccc(Br)cc2c2c1C(c1ccc(Cl)cc1)c1c(ncn3nc(-c4ccco4)nc13)O2 (stereo not given)    81.7
COc1ccc(-c2nc(-c3nc4cc(C)c(C)cc4[nH]3)cc3c2[nH]c2ccccc23)cc1    -4
O=C(O)c1nc(-c2ccccc2)oc1N1CCOCC1    105
COc1ccc2cc(-c3ccc(-c4ccc(C(=N)N)cc4)s3)ccc2c1    -15.4
Cn1ccc(=O)c(S(N)(=O)=O)c1    112
COc1cc(-c2nn(-c3cccc(NC(=O)c4ccccc4)c3)cc2-c2ccncc2)ccc1Cl    0.0228
CC(C)(C)n1cc(-c2ccnc(NCCCNS(=O)(=O)c3ccccc3)c2)c(-c2cccc(O)c2)n1    54.1
CCC(C)/C(=C\C#N)NCCCN/C(=C/C#N)C(C)CC (stereo not given)    126
COc1ccc(C2NN=C3c4ccccc4CCC32)cc1 (stereo not given)    37.6
CN(C)c1nc2c(N)ncnc2n1C1OC(CO)C(O)C1O (stereo not given)    108
CC(C)NCCCNC1=C(Cl)C(=O)c2ccccc2C1=O    40.8
C=C1C(=O)O[C@H]2[C@H]1CC/C(COC(=O)NCc1ccccc1OC)=C\CC[C@@]1(C)O[C@@H]21    -1.44
CN(C)c1cccc2c(S(=O)(=O)/N=C(\N)Nc3nc4ccccc4s3)cccc12    8.44
ClC(Cl)c1nc(-c2ccccc2)nc2cc(-c3ccccc3)nn12    -9.5
O=c1c2sc3ncccc3c2nnn1-c1ccccc1    112
O=C(Nc1ccncc1)C(=O)c1cn(S(=O)(=O)c2ccccc2F)c2ccccc12    -27.1
